Just for reference, ChEMBL document CHEMBL1149918 is where these values come from.

- Experimental Details: Oral bioavailability in rat
- Type: ADME, organism-based
- Experimental Context: in vivo
Reported bioavailability by item:
Quantity Name: bioavailability (%)

INSERT INTO results (compound, recorded_measurement) VALUES
  ('O=C(Nc1ccc(F)cc1)N[C@H]1C(=O)N(CC(=O)N2CCCC2)c2ccccc2N(C2CCCCC2)C1=O', 23),
  ('O=C(Nc1ccc(F)cc1)NC1C(=O)N(CC(=O)N2CCCC2)c2ccccc2N(c2ccccc2F)C1=O (centres undefined)', 68),
  ('O=C(Nc1ccc(F)cc1)NC1C(=O)N(CC(=O)N2CC3CCC(CC3)C2)c2ccccc2N(c2ccccc2F)C1=O (racemic)', 7),
  ('O=C(Nc1ccc(F)cc1)N[C@H]1C(=O)N(CC(=O)N2CCCC2)c2ccccc2N(C2CCCCCC2)C1=O', 10);
